# target_system: Ba/F3 cells with EGFR exon 20 NPG Ins D770_N771 (Homo sapiens, UniProt P00533, INS770NPG)
# Construct: expressed in transfected cells; host or cells: Ba/F3 (murine pro-B cells), retroviral transduction, puromycin selection, IL3-independent pool
# Sequence (P00533 with tags, fused parts or gaps INS770NPG): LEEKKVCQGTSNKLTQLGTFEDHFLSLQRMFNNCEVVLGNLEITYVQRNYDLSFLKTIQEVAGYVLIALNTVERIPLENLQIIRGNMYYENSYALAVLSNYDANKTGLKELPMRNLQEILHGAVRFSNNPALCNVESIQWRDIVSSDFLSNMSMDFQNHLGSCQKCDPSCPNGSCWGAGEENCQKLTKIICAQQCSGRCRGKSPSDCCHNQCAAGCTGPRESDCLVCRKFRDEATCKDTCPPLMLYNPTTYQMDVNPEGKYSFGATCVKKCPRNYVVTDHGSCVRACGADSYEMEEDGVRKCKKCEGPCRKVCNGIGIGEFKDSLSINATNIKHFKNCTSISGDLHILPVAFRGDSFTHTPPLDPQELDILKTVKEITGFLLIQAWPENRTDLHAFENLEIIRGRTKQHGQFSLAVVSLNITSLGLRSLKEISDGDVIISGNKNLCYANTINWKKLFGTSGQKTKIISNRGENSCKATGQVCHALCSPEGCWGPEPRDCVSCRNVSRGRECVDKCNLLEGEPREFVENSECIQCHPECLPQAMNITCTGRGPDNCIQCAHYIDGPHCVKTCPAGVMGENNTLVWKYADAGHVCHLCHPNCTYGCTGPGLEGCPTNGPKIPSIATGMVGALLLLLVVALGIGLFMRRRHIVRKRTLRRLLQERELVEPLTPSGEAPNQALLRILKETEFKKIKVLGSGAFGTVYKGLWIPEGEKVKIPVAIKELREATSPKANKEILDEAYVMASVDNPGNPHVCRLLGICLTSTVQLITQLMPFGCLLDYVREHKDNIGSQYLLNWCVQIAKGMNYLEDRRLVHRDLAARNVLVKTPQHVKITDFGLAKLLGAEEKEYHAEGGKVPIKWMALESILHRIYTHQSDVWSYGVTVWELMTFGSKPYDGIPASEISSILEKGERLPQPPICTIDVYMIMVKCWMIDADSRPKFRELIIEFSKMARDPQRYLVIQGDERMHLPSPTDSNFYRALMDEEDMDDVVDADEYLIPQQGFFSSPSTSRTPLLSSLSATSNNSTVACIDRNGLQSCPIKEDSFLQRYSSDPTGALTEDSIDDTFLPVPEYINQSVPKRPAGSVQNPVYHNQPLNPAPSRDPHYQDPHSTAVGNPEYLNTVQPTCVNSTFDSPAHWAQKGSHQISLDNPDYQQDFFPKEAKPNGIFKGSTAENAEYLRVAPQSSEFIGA
# assay_notes: EGFR activity: Ba/F3 cell viability (CellTiter-Glo, 72 h), EGFR exon 20 NPG insertion
# Type: cell-based
# assay_conditions: EGFR exon 20 NPG Ins D770_N771, cell viability, read-out: BaF3 NPG IC50
Parameter: IC50. Scope: all listed entries.

COc1c(F)cccc1Nc1c(-c2ccncc2C#C[C@@]2(C)CCCN2C(=O)/C=C/CN2CC(OC)C2)[nH]c2c1C(=O)NCC2: < 100 nM
COc1c(Cl)cccc1Nc1c(-c2ccncc2OC[C@@H]2CCCN2S(C)(=O)=O)[nH]c2c1C(=O)NCC2 [Compound 142a]: 100 to 1000 nM
C=CC(=O)N1CCC[C@]1(C)C#Cc1cnccc1-c1[nH]c2c(c1Nc1cc(F)cc(Cl)c1OC)C(=O)NCC2: < 100 nM
COc1c(Cl)cc(F)cc1Nc1c(-c2ccncc2C#C[C@@]2(C)CCCN2C(=O)/C=C/CN(C)C)[nH]c2c1C(=O)NCC2: < 100 nM
C=CC(=O)N1CCN(C)C[C@@H]1COc1cnccc1-c1[nH]c2c(c1Nc1cccc(F)c1OC)C(=O)NCC2: 100 to 1000 nM

Quickly give me recorded IC50 for COc1c(Cl)cccc1Nc1c(-c2ccncc2C#CC2CC2)[nH]c2c1C(=O)NCC2
< 100 nM

Quickly give me recorded IC50 for COc1c(Cl)cccc1Nc1c(-c2ccncc2C#C[C@@H]2CN(C)CCO2)[nH]c2c1C(=O)NCC2
< 100 nM

Quickly give me recorded IC50 for CC#CC(=O)N1CC[C@@H]1C#Cc1cnccc1-c1[nH]c2c(c1Nc1cccc(F)c1OC)C(=O)NCC2
< 100 nM

Quickly give me recorded IC50 for CCC(=O)N1CCC[C@@H]1COc1cnccc1-c1[nH]c2c(c1Nc1cccc(Cl)c1OC)C(=O)NCC2
> 1000 nM

Quickly give me recorded IC50 for C=CC(=O)N[C@]1(C#Cc2cnccc2-c2[nH]c3c(c2Nc2cccc(F)c2C)C(=O)NCC3)CCOC1
< 100 nM

Quickly give me recorded IC50 for C=CC(=O)NC1(C#Cc2cnccc2-c2[nH]c3c(c2Nc2cccc(Cl)c2OC)C(=O)NCC3)CC(F)(F)C1
< 100 nM

Quickly give me recorded IC50 for COc1c(F)cccc1Nc1c(-c2ccncc2C#C[C@]2(NC(=O)/C=C/CN(C)C)CCOC2)[nH]c2c1C(=O)NCC2
100 to 1000 nM

Quickly give me recorded IC50 for C=CC(=O)N1CCN(C)C[C@H]1COc1cnccc1-c1[nH]c2c(c1Nc1cccc(Cl)c1OC)C(=O)NCC2
< 100 nM

Quickly give me recorded IC50 for C=CC(=O)NC1(C#Cc2cnccc2-c2[nH]c3c(c2Nc2cccc(Cl)c2OC)C(=O)NCC3)COC1
< 100 nM

Quickly give me recorded IC50 for C=CC(=O)NC(C)(C)C#Cc1cnccc1-c1[nH]c2c(c1Nc1cccc(F)c1C)C(=O)NCC2
< 100 nM

Quickly give me recorded IC50 for COc1c(F)cccc1Nc1c(-c2ccncc2C#C[C@H]2CCN2C(=O)/C=C/CN(C)C)[nH]c2c1C(=O)NCC2
< 100 nM

Quickly give me recorded IC50 for COc1c(F)cccc1Nc1c(-c2ccncc2C#C[C@@]2(C)CCCN2C(=O)C#CCN(C)C)[nH]c2c1C(=O)NCC2
< 100 nM

Quickly give me recorded IC50 for C=CC(=O)N1CCC[C@@H]1COc1cnccc1-c1[nH]c2c(c1Nc1cccc(F)c1C)C(=O)NCC2
< 100 nM

Quickly give me recorded IC50 for C=CC(=O)N1CCOC[C@@]1(C)C#Cc1cnccc1-c1[nH]c2c(c1Nc1cccc(F)c1OC)C(=O)NCC2
< 100 nM
